Test system: uteri
PROCEDURE_SUMMARY: 6 weeks spayed rats, protection of bone and heart: uterine weight
Format: in vivo, rat
CONDITION_SET: spayed female Sprague-Dawley CD rats, 6 weeks treatment; n = 2
The reader will find reported percentage of weight gain of uteri values listed item by item below.
Give just the numeric value; % need not be written.

Answered examples (5):
Given the molecule CCN(CC)C(=O)COc1ccc(C(=O)c2oc3cc4c(cc3c2-c2ccc(O)cc2)CCCO4)cc1 [Example 62] , what is its reported percentage of weight gain of uteri?
23.9

And O=C(c1ccc(OCC(=O)N2CCCCC2)cc1)c1oc2cc3c(cc2c1-c1ccc(O)cc1)CCCO3 [Example 60] ?
12.4

One more molecule: CN(C)CCOc1ccc(C(=O)c2oc3cc4c(cc3c2-c2ccc(O)cc2)CCCO4)cc1 [Example 58]
3.2

Now give it for CN(C)C(=O)COc1ccc(C(=O)c2oc3cc4c(cc3c2-c2ccc(O)cc2)CCCO4)cc1 [Example 64] too.
35.5

Next molecule: O=C(c1ccc(OCC(=O)N2CCOCC2)cc1)c1oc2cc3c(cc2c1-c1ccc(O)cc1)CCCO3
6.2

Now let's try a different one.
Looking for the measured percentage of weight gain of uteri of CCN(CC)CCOc1ccc(C(=O)c2oc3cc4c(cc3c2-c2ccc(O)cc2)CCCO4)cc1 [Example 56] , can you help?
15.1
